These entries and their values trace back to ChEMBL document CHEMBL1138597.

- procedure.details: Half life in Sprague-Dawley rat at 2 mg/kg, iv or 25 mg/kg, po
- Format: ADME, organism-based
- study.conditions: in vivo
reported.property: half-life (h)
I only need the number, in h, no unit after it.

Record request: half-life value, item CC(C)[C@@H](NS(=O)(=O)c1ccc(-c2ccc(COc3ccc(C(=O)C4CCCCC4)cc3)cc2)cc1)C(=O)O
3.07

---

- procedure.details: Oral bioavailability in Sprague-Dawley rat at 25 mg/kg
- Format: ADME, organism-based
- study.conditions: in vivo
reported.property: bioavailability (%)
Hi! Could you send only the number? It should be in %, unit omitted.

Quick one: bioavailability for CC(C)[C@@H](NS(=O)(=O)c1ccc(-c2ccc(COc3ccc(C(=O)C4CCCCC4)cc3)cc2)cc1)C(=O)O ?
13

---

- procedure.details: Clearance in Sprague-Dawley rat at 2 mg/kg, iv or 25 mg/kg, po
- Format: ADME, organism-based
- study.conditions: in vivo
reported.property: clearance (mL/min/kg)
Reply numerically in mL/min/kg, unit not repeated.

Look up clearance for this compound: CC(C)[C@@H](NS(=O)(=O)c1ccc(-c2ccc(COc3ccc(C(=O)C4CCCCC4)cc3)cc2)cc1)C(=O)O
6.9

---

Each record here notes measured IC50.
- system.under.test: Matrix metalloproteinase-14 (Homo sapiens, UniProt P50281)
Write the figure, then the unit, nothing else.

{"given.smiles": "CC(C)[C@@H](NS(=O)(=O)c1ccc(-c2ccc(COc3ccc4c(c3)CCCC4=O)cc2)cc1)C(=O)O", "reported": "1300 nM"}
{"given.smiles": "CC(C)C(=O)c1ccc(OCc2ccc(-c3ccc(S(=O)(=O)N[C@@H](C(=O)O)C(C)C)cc3)cc2)cc1", "reported": "915 nM"}

Read the next record carefully.
Given the entry CC(C)[C@@H](NS(=O)(=O)c1ccc(-c2ccc(COc3ccc(C(=O)c4ccc(F)cc4)cc3)cc2)cc1)C(=O)O , what IC50 was observed with Matrix metalloproteinase-14 (Homo sapiens, UniProt P50281)?
220 nM

---

- procedure.details: Cmax in Sprague-Dawley rat at 2 mg/kg, iv or 25 mg/kg, po
- Type: ADME, organism-based
- study.conditions: in vivo
reported.property: Cmax (ng/mL)
Numeric answer only, unit ng/mL assumed.

Given CC(C)[C@@H](NS(=O)(=O)c1ccc(-c2ccc(COc3ccc(C(=O)C4CCCCC4)cc3)cc2)cc1)C(=O)O , state its recorded Cmax.
694

---

Target sequence: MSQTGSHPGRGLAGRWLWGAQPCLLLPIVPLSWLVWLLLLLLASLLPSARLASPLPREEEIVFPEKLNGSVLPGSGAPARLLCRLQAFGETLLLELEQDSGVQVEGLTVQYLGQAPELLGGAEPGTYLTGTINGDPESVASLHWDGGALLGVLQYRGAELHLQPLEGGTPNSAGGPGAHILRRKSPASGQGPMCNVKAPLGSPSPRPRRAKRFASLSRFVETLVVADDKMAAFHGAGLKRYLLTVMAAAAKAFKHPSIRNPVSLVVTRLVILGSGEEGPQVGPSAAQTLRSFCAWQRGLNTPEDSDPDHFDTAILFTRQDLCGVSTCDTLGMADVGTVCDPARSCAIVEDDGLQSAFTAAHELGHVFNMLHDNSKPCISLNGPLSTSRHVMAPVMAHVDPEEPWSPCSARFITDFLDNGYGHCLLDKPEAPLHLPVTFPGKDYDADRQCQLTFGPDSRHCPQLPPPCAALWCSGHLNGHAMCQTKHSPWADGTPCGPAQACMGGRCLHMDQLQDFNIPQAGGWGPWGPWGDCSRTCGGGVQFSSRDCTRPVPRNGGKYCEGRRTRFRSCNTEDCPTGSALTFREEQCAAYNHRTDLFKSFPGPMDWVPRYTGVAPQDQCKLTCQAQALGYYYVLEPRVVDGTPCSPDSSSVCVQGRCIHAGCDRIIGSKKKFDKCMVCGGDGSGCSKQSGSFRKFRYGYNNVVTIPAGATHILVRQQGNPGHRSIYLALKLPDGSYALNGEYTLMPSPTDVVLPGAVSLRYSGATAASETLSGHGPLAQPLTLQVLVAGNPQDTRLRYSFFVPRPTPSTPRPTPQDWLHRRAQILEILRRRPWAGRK
IC50: recorded values
Give the value in µM but do not write µM after it.

{"given.smiles": "CC(C)[C@@H](NS(=O)(=O)c1ccc(-c2ccc(COc3ccc(CN4CCOCC4)cc3)cc2)cc1)C(=O)O", "reported.property": "IC50", "u": "µM", "reported": 6}
{"given.smiles": "CC(C)[C@@H](NS(=O)(=O)c1ccc(-c2ccc(COc3ccc4ccccc4n3)cc2)cc1)C(=O)O", "reported.property": "IC50", "u": "µM", "reported": 0.4}
{"given.smiles": "CC(C)[C@@H](NS(=O)(=O)c1ccc(-c2ccc(COc3ccc4c(c3)CCCC4=O)cc2)cc1)C(=O)O", "reported.property": "IC50", "u": "µM", "reported": 0.23}
{"given.smiles": "CC(C)[C@@H](NS(=O)(=O)c1ccc(-c2ccc(COc3cccc(N(C)C)c3)cc2)cc1)C(=O)O", "reported.property": "IC50", "u": "µM", "reported": 4.9}
{"given.smiles": "CC(C)[C@@H](NS(=O)(=O)c1ccc(-c2ccc(COc3cc4cccc(C(F)(F)F)c4nc3C(F)(F)F)cc2)cc1)C(=O)O", "reported.property": "IC50", "u": "µM", "reported": 0.2}

Entry CC(C)[C@@H](NS(=O)(=O)c1ccc(-c2ccc(COc3ccc(NC(=O)OC(C)(C)C)cc3)cc2)cc1)C(=O)O has what IC50?
0.59

CC(C)[C@@H](NS(=O)(=O)c1ccc(-c2ccc(COc3ccc(C(=O)N4CCOCC4)cc3)cc2)cc1)C(=O)O , same question.
5.2

Also, Cc1c(CC(=O)Oc2ccc(-c3ccc(S(=O)(=O)N[C@@H](C(=O)O)C(C)C)cc3)cc2)oc2ccccc12 please.
0.7

---

- system.under.test: A disintegrin and metalloproteinase with thrombospondin motifs 5 (Homo sapiens)
- Sequence (Q9UNA0 whole entry): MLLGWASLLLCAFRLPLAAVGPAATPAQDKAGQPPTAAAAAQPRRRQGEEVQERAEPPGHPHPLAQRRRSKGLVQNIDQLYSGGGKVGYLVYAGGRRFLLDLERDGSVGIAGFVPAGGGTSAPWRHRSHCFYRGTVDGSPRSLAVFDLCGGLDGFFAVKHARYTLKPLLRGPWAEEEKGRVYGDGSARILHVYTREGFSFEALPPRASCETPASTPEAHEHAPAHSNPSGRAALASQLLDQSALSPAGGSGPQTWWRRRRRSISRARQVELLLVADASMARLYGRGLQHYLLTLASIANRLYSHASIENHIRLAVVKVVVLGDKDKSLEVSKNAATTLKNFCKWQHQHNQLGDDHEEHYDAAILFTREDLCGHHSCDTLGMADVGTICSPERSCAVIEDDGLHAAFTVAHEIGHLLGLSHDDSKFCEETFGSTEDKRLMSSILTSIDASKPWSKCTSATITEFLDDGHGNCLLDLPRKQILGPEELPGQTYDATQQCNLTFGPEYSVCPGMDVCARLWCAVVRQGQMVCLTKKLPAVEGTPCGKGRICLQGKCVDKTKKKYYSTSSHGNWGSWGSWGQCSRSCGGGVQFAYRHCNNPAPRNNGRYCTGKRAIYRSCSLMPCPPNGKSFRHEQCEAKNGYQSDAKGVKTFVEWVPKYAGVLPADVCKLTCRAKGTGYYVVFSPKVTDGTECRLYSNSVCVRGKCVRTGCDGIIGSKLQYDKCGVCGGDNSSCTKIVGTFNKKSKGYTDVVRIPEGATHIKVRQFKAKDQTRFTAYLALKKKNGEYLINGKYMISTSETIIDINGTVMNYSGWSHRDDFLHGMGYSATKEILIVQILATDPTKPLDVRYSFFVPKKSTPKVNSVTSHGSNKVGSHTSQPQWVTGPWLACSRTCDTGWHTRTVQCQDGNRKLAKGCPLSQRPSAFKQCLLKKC
- procedure.details: Inhibition of aggrecanase2
reported.property: IC50 (µM)
// note: answer is a bare numeric in µM

Looking for the measured IC50 of CC(C)[C@@H](NS(=O)(=O)c1ccc(-c2ccc(COc3ccc4c(c3)CCCC4=O)cc2)cc1)C(=O)O , can you help?
6.6

---

- system.under.test: Collagenase 3 (Homo sapiens)
Collected IC50 values appear next to each entry.
Hi, when you answer, please include the unit after the number. Thanks!

// known answers, use as guide
{"given.smiles": "CC(C)[C@@H](NS(=O)(=O)c1ccc(-c2ccc(COc3ccc(C(=O)C4CCCCC4)cc3)cc2)cc1)C(=O)O", "IC50": "15 nM"}
{"given.smiles": "CC(C)C(=O)c1ccc(OCc2ccc(-c3ccc(S(=O)(=O)N[C@@H](C(=O)O)C(C)C)cc3)cc2)cc1", "IC50": "1.1 nM"}
{"given.smiles": "CC(C)[C@@H](NS(=O)(=O)c1ccc(-c2ccc(COc3ccc4c(c3)CCCC4=O)cc2)cc1)C(=O)O", "IC50": "2.2 nM"}

Can you look up the measured IC50 of CC(C)[C@@H](NS(=O)(=O)c1ccc(-c2ccc(COc3ccc(C(=O)c4ccc(F)cc4)cc3)cc2)cc1)C(=O)O for me?
6.3 nM

---

Catalogue of pIC50 values
Sequence of the target: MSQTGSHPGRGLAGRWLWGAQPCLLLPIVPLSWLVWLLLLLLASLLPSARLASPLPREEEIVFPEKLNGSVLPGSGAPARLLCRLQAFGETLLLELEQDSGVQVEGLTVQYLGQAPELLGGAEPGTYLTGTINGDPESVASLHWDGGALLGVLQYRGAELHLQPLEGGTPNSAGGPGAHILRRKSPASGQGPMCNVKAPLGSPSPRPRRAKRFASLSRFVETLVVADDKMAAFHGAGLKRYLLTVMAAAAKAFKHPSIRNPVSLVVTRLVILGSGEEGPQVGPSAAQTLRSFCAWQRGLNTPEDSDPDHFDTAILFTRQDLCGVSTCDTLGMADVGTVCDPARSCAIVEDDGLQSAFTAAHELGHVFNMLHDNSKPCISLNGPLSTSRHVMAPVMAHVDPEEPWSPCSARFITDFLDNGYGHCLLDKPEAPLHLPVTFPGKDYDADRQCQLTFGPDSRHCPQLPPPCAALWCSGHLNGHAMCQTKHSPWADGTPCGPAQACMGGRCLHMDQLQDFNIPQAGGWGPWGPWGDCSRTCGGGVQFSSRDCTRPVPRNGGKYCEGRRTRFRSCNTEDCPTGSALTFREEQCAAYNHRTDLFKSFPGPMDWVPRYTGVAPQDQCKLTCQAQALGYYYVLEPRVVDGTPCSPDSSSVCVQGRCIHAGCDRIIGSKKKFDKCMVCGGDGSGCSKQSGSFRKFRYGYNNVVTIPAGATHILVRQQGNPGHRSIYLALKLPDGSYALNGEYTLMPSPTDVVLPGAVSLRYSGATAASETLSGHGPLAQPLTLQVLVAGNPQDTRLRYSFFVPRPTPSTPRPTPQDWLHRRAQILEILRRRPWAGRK
Lab note: report pIC50 as minus log10 of the concentration in molar units, number only.

Recorded pIC50 for CC(C)[C@@H](NS(=O)(=O)c1ccc(-c2ccc(COc3ccc(C(=O)C4CCCCC4)cc3)cc2)cc1)C(=O)O , please?
7.05

# repeat for CC(C)[C@@H](NS(=O)(=O)c1ccc(-c2ccc(COc3ccc4c(c3)CCCC4=O)cc2)cc1C(F)(F)F)C(=O)O
5.49

Item: CC(C)[C@@H](NS(=O)(=O)c1ccc(-c2ccc(COc3ccc4c(c3)CCCC4=O)cc2)cc1OC(F)(F)F)C(=O)O
4.70

Again, but for Cc1cccc(Oc2ccc(OCc3ccc(-c4ccc(S(=O)(=O)N[C@@H](C(=O)O)C(C)C)cc4)cc3)cc2)n1
6.14

Similarly, CC(C)[C@@H](NS(=O)(=O)c1ccc(-c2ccc(COc3ccc4c(c3)CCCC4=O)cc2)cc1F)C(=O)O ?
6.74

Ok, now CC(C)[C@@H](NS(=O)(=O)c1ccc(-c2ccc(COc3ccc(C(=O)c4ccccc4)cc3)cc2)cc1)C(=O)O
6.64

Moving on to the next compound: CC(=O)c1ccc(OCc2ccc(-c3ccc(S(=O)(=O)N[C@@H](C(=O)O)C(C)C)cc3)cc2)cc1
6.37

Input CC(C)[C@@H](NS(=O)(=O)c1ccc(-c2ccc(COc3ccc(C(=O)c4ccc(F)cc4)cc3)cc2)cc1)C(=O)O
7.10
